A short record of IC50 observed with Transitional endoplasmic reticulum ATPase (Homo sapiens, UniProt P55072) follows.
Sequence (P55072 whole entry): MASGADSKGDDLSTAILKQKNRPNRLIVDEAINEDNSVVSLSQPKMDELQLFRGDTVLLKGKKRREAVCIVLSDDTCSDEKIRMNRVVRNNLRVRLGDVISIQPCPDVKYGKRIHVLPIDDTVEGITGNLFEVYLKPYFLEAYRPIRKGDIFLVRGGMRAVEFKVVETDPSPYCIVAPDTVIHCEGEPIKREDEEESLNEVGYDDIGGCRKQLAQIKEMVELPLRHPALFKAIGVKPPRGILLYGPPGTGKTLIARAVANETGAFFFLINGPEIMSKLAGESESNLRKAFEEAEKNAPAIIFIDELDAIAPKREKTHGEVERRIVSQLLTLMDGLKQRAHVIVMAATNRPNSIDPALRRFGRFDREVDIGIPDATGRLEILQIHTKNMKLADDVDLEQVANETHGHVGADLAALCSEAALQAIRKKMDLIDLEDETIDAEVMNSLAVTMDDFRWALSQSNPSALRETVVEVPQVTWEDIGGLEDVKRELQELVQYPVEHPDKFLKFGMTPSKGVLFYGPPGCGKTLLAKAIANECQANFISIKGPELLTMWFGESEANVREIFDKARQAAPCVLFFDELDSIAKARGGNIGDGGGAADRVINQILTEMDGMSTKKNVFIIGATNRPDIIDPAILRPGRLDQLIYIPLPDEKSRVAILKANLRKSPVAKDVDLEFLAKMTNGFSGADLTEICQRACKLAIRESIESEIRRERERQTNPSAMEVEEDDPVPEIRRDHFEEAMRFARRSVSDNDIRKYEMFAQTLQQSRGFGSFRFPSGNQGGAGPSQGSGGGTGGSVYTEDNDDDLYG
PARAMETER_MEASURED: IC50 (µM)

Look over these answered cases.
>>> print(df.to_string())
                            smiles_notation                       experimental_target  result
0  Cc1cc2c(C(N)=O)cccc2n1-c1nc2c(c(NCc3ccccc3)n1)CNCC2  Transitional endoplasmic reticulum ATPase (Homo sapiens, UniProt P55072)    2.86
1  COc1cccc2c(NCc3ccccc3)nc(-n3c(N)nc4ccccc43)nc12  Transitional endoplasmic reticulum ATPase (Homo sapiens, UniProt P55072)    6.61
2  COc1nc2ccccc2n1-c1nc2c(c(NCc3ccccc3)n1)CCCC2  Transitional endoplasmic reticulum ATPase (Homo sapiens, UniProt P55072)    9.34

P = Cc1cc2c(C(N)=O)cccc2n1-c1nc2c(c(NCc3ccccc3)n1)CCCC2
Q = Cc1cc2ccccc2n1-c1nc2c(c(NCc3ccccc3)n1)CNCC2
Hi! Which is lower in terms of IC50, the first one P or the second one Q ? Response format: the label of the selected entry.
P
(P: 0.58 µM, Q: 9.15 µM)
